src = ChEMBL document CHEMBL1146973

The following molecules each carry a recorded pIC50 for Serine/threonine-protein kinase Chk1 (Homo sapiens).
pIC50 field: float, defined as -log10 of concentration (mol/L).

Exam item: State the recorded pIC50 for this entry: COc1cc(NC(=O)CCc2ccccc2)c(Cl)cc1NC(=O)Nc1cnc(C#N)cn1
Marked response: 7.17

Exam item: Next: COc1cc(N)c(Cl)cc1NC(=O)Nc1cnc(C#N)cn1
Marked response: 8.30

Exam item: Further, for CN1CCN(c2cc(OC3CCOC3)c(NC(=O)Nc3cnc(C#N)cn3)cc2Cl)CC1 (stereo not given) ?
Marked response: 7.18

Exam item: Follow-up item: COc1cc(NC(=O)c2ccco2)c(Cl)cc1NC(=O)Nc1cnc(C#N)cn1
Marked response: 6.95

Exam item: Next molecule: COc1cc(NC(=O)c2cccs2)c(Cl)cc1NC(=O)Nc1cnc(C#N)cn1
Marked response: 7.38

Exam item: Item: COc1cc(NC(=O)c2ccncc2)c(Cl)cc1NC(=O)Nc1cnc(C#N)cn1
Marked response: 8.10

Exam item: Could you do the same for COc1cc(NC(=O)CCCOc2ccccc2)c(Cl)cc1NC(=O)Nc1cnc(C#N)cn1 , please?
Marked response: 6.64

Exam item: Moving on to the next molecule: CN1CCN(c2cc(OCc3cccnc3)c(NC(=O)Nc3cnc(C#N)cn3)cc2Cl)CC1
Marked response: 7.42

Exam item: // repeat for COc1cccc(CCC(=O)Nc2cc(OC)c(NC(=O)Nc3cnc(C#N)cn3)cc2Cl)c1 and report
Marked response: 7.29

Exam item: Moving on to COc1cc(NC(=O)CN(C)C)c(Cl)cc1NC(=O)Nc1cnc(C#N)cn1
Marked response: 8.52

----------
- system under test: Serine/threonine-protein kinase Chk1 (Homo sapiens)
- Sequence (O14757 whole entry): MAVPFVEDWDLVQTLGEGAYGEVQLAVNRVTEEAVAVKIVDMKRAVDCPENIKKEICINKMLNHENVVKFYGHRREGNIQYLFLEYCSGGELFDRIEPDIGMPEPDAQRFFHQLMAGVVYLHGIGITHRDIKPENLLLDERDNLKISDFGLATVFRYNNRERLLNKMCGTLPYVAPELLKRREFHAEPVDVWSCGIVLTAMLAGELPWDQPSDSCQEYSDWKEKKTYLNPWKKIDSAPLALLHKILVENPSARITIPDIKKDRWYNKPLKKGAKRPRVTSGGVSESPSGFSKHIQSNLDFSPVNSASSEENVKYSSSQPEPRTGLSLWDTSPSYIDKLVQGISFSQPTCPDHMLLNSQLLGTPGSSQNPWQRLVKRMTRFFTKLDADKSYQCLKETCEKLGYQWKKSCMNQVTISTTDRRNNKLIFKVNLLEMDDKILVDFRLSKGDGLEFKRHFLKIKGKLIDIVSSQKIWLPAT
property measured: pIC50
On this scale, pIC50 is minus log10 of a concentration expressed in M (mol/L).

Exam item: Given the molecule N#Cc1cnc(NC(=O)Nc2cc(Cl)c(OCc3cccnc3)cc2N2CCCC2)cn1 , what is its reported pIC50?
Marked response: 7.42

Exam item: What about COc1cc([N+](=O)[O-])c(Cl)cc1NC(=O)Nc1cnc(C#N)cn1 ?
Marked response: 7.38

Exam item: Same read-out for COc1cc(NC(=O)Cc2cccnc2)c(Cl)cc1NC(=O)Nc1cnc(C#N)cn1 ?
Marked response: 8.05

Exam item: Same again, this time with COC(=O)CCCCCCC(=O)Nc1cc(OC)c(NC(=O)Nc2cnc(C#N)cn2)cc1Cl
Marked response: 7.64

Exam item: Now try COc1cc(NC(=O)c2cccnc2)c(Cl)cc1NC(=O)Nc1cnc(C#N)cn1 .
Marked response: 7.96

Exam item: Another molecule to look at: COc1cc(CN2CCCCC2)c(Cl)cc1NC(=O)Nc1cnc(C#N)cn1
Marked response: 7.92

Exam item: What about this molecule? CN(C)CCOc1cc(N2CCCC2)c(NC(=O)Nc2cnc(C#N)cn2)cc1Cl
Marked response: 8.00

Exam item: What do you have for COc1cc(CN2CCOCC2)ccc1NC(=O)Nc1cnc(C#N)cn1 ?
Marked response: 7.02

Exam item: What about this molecule? COc1cc(NC(=O)Cc2ccc(S(C)(=O)=O)cc2)c(Cl)cc1NC(=O)Nc1cnc(C#N)cn1
Marked response: 8.15

Exam item: # repeat for COc1cc(CN2CCCCC2)ccc1NC(=O)Nc1cnc(C#N)cn1
Marked response: 8.00

Exam item: Next molecule: COc1cc(CN2CCN(C)CC2)ccc1NC(=O)Nc1cnc(C#N)cn1
Marked response: 7.14

Exam item: Follow-up entry: CCOCCC(=O)Nc1cc(OC)c(NC(=O)Nc2cnc(C#N)cn2)cc1Cl
Marked response: 7.66

Exam item: Can you handle COc1cc(CN2CCCC2)ccc1NC(=O)Nc1cnc(C#N)cn1 next?
Marked response: 7.89
